System: 11-beta-hydroxysteroid dehydrogenase 1 (Homo sapiens, UniProt P28845) | Read-out: IC50 | Origin: multiple publications

Solved cases (2 shown):
compound	tested.on	IC50
CN1C(=O)C2(CCN(C(=O)Cc3ccccc3C(F)(F)F)CC2)c2ccccc21	11-beta-hydroxysteroid dehydrogenase 1 (Homo sapiens, UniProt P28845)	< 100 nM
CC(O)C[C@]1(c2ccccc2)CCCN([C@@H](C)c2ccc(Br)cc2)C(=O)N1 (some centres unmarked)	11-beta-hydroxysteroid dehydrogenase 1 (Homo sapiens, UniProt P28845)	< 100 nM

-- ask Look up IC50: C[C@H](N1CC[C@](CCCO)(c2ccc(F)cc2)NC1=O)C(C)(C)C
-- reply < 100 nM

-- ask # get_value(readout='IC50', item= C[C@@H](c1ccc(-c2ccn(C)c(=O)c2)cc1)N1CCC[C@](CC(C)(C)O)(c2ccccc2)OC1=O )
-- reply < 100 nM

-- ask Suppose we examine the compound O=C1NC2(CCN(C(=O)/C=C/c3ccccc3C(F)(F)F)CC2)c2c(Cl)cccc21 ; what IC50 value has been reported?
-- reply < 100 nM

-- ask Which IC50 value belongs to O=C(c1cc2ncc(Br)cn2n1)N1CCc2ccc(Cl)nc2CC1 ?
-- reply > 10000 nM

-- ask # query: IC50 of entry CCOC(=O)CC1CC2(CCN(C(=O)/C=C/c3ccccc3C(F)(F)F)CC2)c2c(Br)cccc21 (racemic)
-- reply < 100 nM
